target: SpHof1; assay: SPOT peptide array binding signal intensity (averaged, normalized) (arbitrary units (background-subtracted, floor 0; scale differs between SH3 domains)); higher = stronger binding of the SH3 domain to the peptide
Quick reference for SPOT peptide array binding signal intensity among some binders
Lab note: jot down the number only; don't add units.

Illustrative cases are given below, each with its answer.
binder | testValue
RRSKSLPTTPGIRSG | 2630
QTMRQAPKRPDADVA | 51.5
RSKRLFPVRPMATAH | 99.2

Okay, next one:
In one line, give reported SPOT peptide array binding signal intensity of the entry "SRSKPLPLTPNSKYN" .
1490
